- experimentalSystem: T1, hKLRF1 (human, UniProt Q9NZS2 1-231)
- T1 construct: Overexpressed on HEK293 cells
- T1 sequence: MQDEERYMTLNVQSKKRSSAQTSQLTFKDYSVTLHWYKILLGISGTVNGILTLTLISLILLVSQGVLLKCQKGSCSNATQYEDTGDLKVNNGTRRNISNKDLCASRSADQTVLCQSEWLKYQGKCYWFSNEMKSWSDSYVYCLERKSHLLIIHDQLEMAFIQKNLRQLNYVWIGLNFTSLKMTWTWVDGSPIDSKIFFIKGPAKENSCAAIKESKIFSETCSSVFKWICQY
- protocolNotes: flow cytometry, HEK293 transfectants, 100 nM antibody;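 further: antibody applied at a saturating level and incubated with cells for 30 min at room temperature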
What % of CD161 binding was measured for each of the following?
Report only the number, with the unit % understood.

Looking up Ab7 (antibody, human IgG1, V domains shown, IgG purified from yeast culture) VH: EVQLLESGGGLVQPGGSLRLSCAASGFTFGQYAMSWVRQAPGKGLEWVSAISAAGGTTYYADSVKGRFTISRDNSKNTLYLQMNSLRAEDTAVYYCAKPLDSSQWADFDLWGRGTLVTVSS VL: DIQLTQSPSSVSASVGDRVTITCRASQGISSWLAWYQQKPGKAPKLLIYAASFLQSGVPSRFSGSGSGTDFTLTISSLQPEDFATYYCQQASVLPITFGGGTKVEIK , I see its % of CD161 binding listed as 0.018

Looking up Ab17 (antibody, human IgG1, V domains shown, IgG purified from yeast culture) VH: QVQLVESGGGLVKPGGSLRLSCAASGFTFSDYYMSWIRQAPGKGLEWVSYISPSGATIYYADSVKGRFTISRDNAKNSLYLQMNSLRAEDTAVYYCARSLMSTGTHLYFDLWGRGTLVTVSS VL: DIQLTQSPSSVSASVGDRVTITCRASQGISSWLAWYQQKPGKAPKLLIYAASSLQSGVPSRFSGSGSGTDFTLTISSLQPEDFATYYCQQVTSVPPYTFGGGTKVEIK , I see its % of CD161 binding listed as 0.078

Looking up Ab20 (antibody, human IgG1, V domains shown, IgG purified from yeast culture) VH: QVQLVESGGGLVQPGGSLRLSCAASGFTFSQYYMSWIRQAPGKGLEWVSYISPSGATIAYADSVKGRFTISRDNAKNSLYLQMNSLRAEDTAVYYCARSLMSTGTHLYFDLWGRGTLVTVSS VL: DIQLTQSPSSVSASVGDRVTITCRASQGISSWLAWYQQKPGKAPKLLIYAASVLQSGVPSRFSGSGSGTDFTLTISSLQPEDFATYYCQQVTSFLPYTFGGGTKVEIK , I see its % of CD161 binding listed as 0.132
